- TEST_TARGET: human ORL1 receptor (Homo sapiens, UniProt P41146)
- Sequence (P41146 whole entry): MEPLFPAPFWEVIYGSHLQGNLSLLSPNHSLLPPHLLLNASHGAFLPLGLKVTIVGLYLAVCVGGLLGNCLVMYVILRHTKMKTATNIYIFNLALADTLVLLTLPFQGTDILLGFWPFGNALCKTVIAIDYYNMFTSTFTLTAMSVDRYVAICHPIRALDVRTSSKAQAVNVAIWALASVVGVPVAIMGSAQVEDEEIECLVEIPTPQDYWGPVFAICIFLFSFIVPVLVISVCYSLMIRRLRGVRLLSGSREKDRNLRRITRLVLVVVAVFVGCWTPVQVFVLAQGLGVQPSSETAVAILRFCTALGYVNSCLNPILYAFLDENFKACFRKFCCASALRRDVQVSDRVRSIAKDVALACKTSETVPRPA
PROPERTY_MEASURED: IC50
Give the figure together with its unit, number first.

Using the record for O=c1oc2ccccc2n1CCCN1CCC2(CCc3ccccc32)CC1 , report its IC50. 89 nM
